- Assay remarks: chemical genetic growth profiling, strain panel (AID 1159580);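 also: tested at 20 µM; growth read once vehicle control cultures reached saturation at 30 °C; 1 = growth at the plate median or of vehicle wells; lower values mean less growth of the strain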
- Condition notes: S. cerevisiae deletion strains, growth OD, locus YDL214C, strain PRR2
Hit rate of the full screen: of about 5,500 compounds, about 2,000 (36%) were called active. About 18% were inconclusive and are not listed. Rule as the data show it: active = normalized growth mostly below about 0.91 (no sharp cut-off); inconclusive = no clear call, values can overlap the other calls; inactive = mostly above about 0.92. The list shows a part of the results.
A correct response names exactly one class from 1 for active, -1 for inactive

// known answers, use as guide
>>> category("CCOC(=O)C(O)(c1ccc(NC(=O)c2ccc(Cl)c(Cl)c2)cc1)C(F)(F)F (stereo unspecified)")
-1
>>> category("O=C(Nc1ccccc1Sc1ccc(C(F)(F)F)cc1[N+](=O)[O-])C(Cl)Cl")
-1
>>> category("O=C(OCCNc1ccc([N+](=O)[O-])cn1)c1ccc([N+](=O)[O-])o1")
-1
>>> category("O=[N+]([O-])c1ccc(NCc2ccc(Cl)c(Cl)c2)nc1")
-1
>>> category("O=[N+]([O-])c1cc(C(F)(F)F)ccc1Sc1n[nH]c(-c2cc(Cl)cc(Cl)c2)n1")
1
>>> category("O=C(NCc1ccc2c(c1)OCO2)c1cc2ccccc2s1")
1

For O=C(Nc1cc(Cl)cc(Cl)c1)c1cc(Cl)ccc1O , what call appears in the results of this test?
-1

For CCOC(=O)c1ccc(N=Cc2cc(Cl)cc(Cl)c2O)cc1 , what call appears in the results of this test?
1

For Cc1cc(N=Cc2cc(Cl)cc(Cl)c2O)no1 , what call appears in the results of this test?
1

For CCOC(=O)c1cnc(-c2ccccn2)[nH]c1=O , what call appears in the results of this test?
-1

For Cc1csc2ncnc(N3CCN(C(=O)Nc4ccc(SC(F)(F)F)cc4)CC3)c12 , what call appears in the results of this test?
-1

# credit: PubChem BioAssay AID1159580
